Origin of the recorded values: ChEMBL document CHEMBL1151019

test: Kinetic constant for the transformation of vitamin D to Previtamin D (kl / k-1)

[
  {
    "compound": "C=C1/C(=C\\C=C2/CCC[C@]3(C)C([C@H](C)CCCC(O)(C(F)(F)F)C(F)(F)F)CC[C@@H]23)C[C@@H](O)C[C@@H]1O (stereo not given in full)",
    "Keq": 5.1
  },
  {
    "compound": "C=C1/C(=C\\C=C2/CCC[C@]3(C)[C@@H]([C@H](C)CCCC(C)C)CC[C@@H]23)C[C@@H](O)C[C@@H]1O",
    "Keq": 5.18
  },
  {
    "compound": "C=C1CC[C@H](O)C/C1=C/C=C1\\CCC[C@]2(C)[C@@H]([C@H](C)CCCC(C)C)CC[C@@H]12",
    "Keq": 3.71
  },
  {
    "compound": "C=C1/C(=C\\C=C2/CCC[C@]3(C)C([C@H](C)C[C@H](O)CC(O)(C(F)(F)F)C(F)(F)F)CC[C@@H]23)C[C@@H](O)C[C@@H]1O (stereo not given in full)",
    "Keq": 5.46
  },
  {
    "compound": "C=C1CCCC/C1=C/C=C1\\CCC[C@]2(C)C([C@H](C)CCCC(C)C)CC[C@@H]12 (stereo not given in full)",
    "Keq": 3.06
  }
]
